# Tested on: HOP-62 NSCLC
# Assay Comment: NCI tumour cell line growth inhibition, 48 h
Endpoint: TGI

Field: example entries. Status: answers known.
NC1CCCCC1 ... > 562 µM
CCOC(NC(=O)CC)(C(F)(F)F)C(F)(F)F ... > 100 µM

Reported TGI ( CS(=O)(=O)c1ccc(Oc2cc(F)cc(C#N)c2)c2c1[C@H](O)[C@H](F)[C@H]2F ) = > 100 µM

Entry COc1ccc(N=NC(=O)NC(CC(C)C)C(=O)NC(Cc2ccccc2)C(=O)O)cc1 (configuration not stated) , TGI reported as > 100 µM

Lookup result for CC(C)(C)OC/C=C(\Br)CO ; measured TGI: > 100 µM

Query C(=Nc1ccccc1C1SCCCS1)c1ccccc1 yields TGI of > 100 µM

Entry O=C(c1ccccc1)c1c(C(F)(F)F)n([O-])c2ccc(F)cc2[n+]1=O , TGI reported as 2.71 µM

The compound listed as c1ccc2nc3c(cc2c1)Sc1cc2ccccc2[n+]2c1N3CC2 has a reported TGI of 78.1 µM

Measured TGI, CCCCN(CCCC)CC(C(=O)Nc1ccccc1)/C(C)=N\NC(=O)c1ccncc1 (configuration not stated) : > 100 µM

Value of TGI reported for the compound Cc1ccc(S(=O)(=O)NNC(=O)Nc2ccc(Cl)cc2)cc1 is > 100 µM

Query COC1CC(C)(NC(C)=O)C2OC(c3ccccc3)OCC2O1 (configuration not stated) yields TGI of > 100 µM

The compound CCCCCCCCCCCCCCCCCC(=O)NCC(COP(=O)([O-])OCC[N+](C)(C)C)OC (configuration not stated) showed TGI equal to 8.21 µM

The compound CC(C)(C)OC(=O)NC(Cc1ccc(OCc2ccccc2)cc1)C(=O)NC(COCc1ccccc1)C(=O)Oc1c(Cl)c(Cl)c(Cl)c(Cl)c1Cl (configuration not stated) showed TGI equal to 32.9 µM

Data point: O=C(NCc1ccccc1)c1cc2ccccc2oc1=Nc1ccccc1F ; TGI = 39.8 µM

Consider COc1ccc(-c2nn(C(=O)NCCN(C)C)cc2-c2ccncc2)cc1Cl . Its measured TGI is 20.9 µM

What the record says about CCCCCCCCCCCCCCCCSC(=NCC)NCC : TGI is 3.18 µM
